- TARGET_ENTITY: c-kit (Homo sapiens, UniProt P10721)
- Construct: human Mo7e cells which endogenously express c-kit; endogenous in cells; host or cells: human Mo7e cells (promegakaryocytic leukemia line), stimulated with human recombinant SCF
- Sequence (P10721 26-976): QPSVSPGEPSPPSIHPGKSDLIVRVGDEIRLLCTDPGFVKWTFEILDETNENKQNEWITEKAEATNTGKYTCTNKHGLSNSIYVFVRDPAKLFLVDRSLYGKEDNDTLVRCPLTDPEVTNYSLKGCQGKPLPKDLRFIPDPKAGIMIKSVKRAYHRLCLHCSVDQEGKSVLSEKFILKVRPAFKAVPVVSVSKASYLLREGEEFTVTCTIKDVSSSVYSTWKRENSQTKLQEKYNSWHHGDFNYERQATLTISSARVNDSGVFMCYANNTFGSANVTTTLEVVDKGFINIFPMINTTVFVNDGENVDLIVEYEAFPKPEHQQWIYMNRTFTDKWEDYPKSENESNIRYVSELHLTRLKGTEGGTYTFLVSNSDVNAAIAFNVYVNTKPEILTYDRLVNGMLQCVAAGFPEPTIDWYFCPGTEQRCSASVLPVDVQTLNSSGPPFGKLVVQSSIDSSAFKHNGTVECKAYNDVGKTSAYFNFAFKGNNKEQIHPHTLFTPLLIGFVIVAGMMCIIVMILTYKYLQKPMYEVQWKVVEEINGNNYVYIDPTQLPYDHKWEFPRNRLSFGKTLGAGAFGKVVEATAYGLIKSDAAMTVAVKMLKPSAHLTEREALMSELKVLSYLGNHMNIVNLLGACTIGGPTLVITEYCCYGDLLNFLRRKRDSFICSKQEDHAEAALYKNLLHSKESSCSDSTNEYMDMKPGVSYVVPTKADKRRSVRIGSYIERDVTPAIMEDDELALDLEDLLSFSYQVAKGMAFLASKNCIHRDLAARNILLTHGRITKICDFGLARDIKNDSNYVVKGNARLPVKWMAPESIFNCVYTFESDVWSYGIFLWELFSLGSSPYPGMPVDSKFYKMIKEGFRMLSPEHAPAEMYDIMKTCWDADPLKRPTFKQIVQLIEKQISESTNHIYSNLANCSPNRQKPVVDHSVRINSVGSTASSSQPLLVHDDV
- PROTOCOL_NOTES: Mo7e cell proliferation assay (SCF dependent proliferation)
- Type: cell-based
- DETAILS: Table 1; human Mo7e cells stimulated with SCF, 48 hours, CellTiter Glo; 1% FBS; read-out: c-kit (Mo7e)
Form field: IC50 (one value per entry).

These recorded examples may help you get a feel for the data.
[
  {
    "MOLECULE": "Cc1ccc(-c2noc(C3CN(S(C)(=O)=O)C3)n2)cc1NC(=O)c1cnc2ccccn12 [F14]",
    "IC50": "42 nM"
  },
  {
    "MOLECULE": "Cc1ccc(-c2noc([C@H]3CCC(F)(F)CO3)n2)cc1NC(=O)c1cnc2ccccn12 [F12]",
    "IC50": "32 nM"
  },
  {
    "MOLECULE": "Cc1ccc2ncc(C(=O)Nc3cc(-c4noc(N5CC(O)(C(F)(F)F)C5)n4)ccc3C)n2c1 [F6]",
    "IC50": "26 nM"
  }
]

Continue with the molecule presented below.
Q: Return reported IC50; argument: COC(=O)N1CCCCC1c1nc(-c2ccc(C)c(NC(=O)c3cnc4ccccn34)c2)no1 (stereo not shown) [F9]
Ans: 35 nM
